Test: Toxicological evaluation (with toxicokinetics) of rats administered for 21 consecutive days
Details: male, SD, rat, in vivo, po, 1 mg/kg/day, male, oral 1 mg/kg/day, Day 21
observation.type: Tmax

QUERY: Given the compound "Cn1cc(-c2cnc(CNc3nccn4c(-c5cc(F)cc(F)c5)cnc34)cn2)ccc1=O" , write its reported Tmax.
RESULT: 8 h

====

Experiment: Toxicological evaluation (with toxicokinetics) of rats administered for 21 consecutive days
Conditions: female, SD, rat, in vivo, po, 10 mg/kg/day, female, oral 10 mg/kg/day, Day 1, read-out: AUC0-24 h
Method: • SD rats (male and female, 7 to 8 weeks old, Zhejiang Vital River Laboratory Animal Technology Co., Ltd.). • In this experiment, SD rats were administered orally once a day with a test substance, a candidate drug for treating cancer, for 21 days to detect its potential toxicity. At the same time, the toxicokinetic (TK) characteristics of the compound in the animals were examined. 126 rats (63 per gender) were divided into 6 groups. […]
observation.type: AUC(0-t) (µM·h)
Give the quantity in µM·h, number only.

QUERY: # return recorded AUC(0-t) for input "Cn1cc(-c2cnc(CNc3nccn4c(-c5cc(F)cc(F)c5)cnc34)cn2)ccc1=O"
RESULT: 77.7

====

Assay: Toxicological evaluation (with toxicokinetics) of rats administered for 21 consecutive days
Conditions: male, SD, rat, in vivo, po, 1 mg/kg/day, male, oral 1 mg/kg/day, Day 1
observation.type: Cmax (nM)
Note: unit nM is implicit; provide only the numeric part.

QUERY: Provide one value: measured Cmax of "Cn1cc(-c2cnc(CNc3nccn4c(-c5cc(F)cc(F)c5)cnc34)cn2)ccc1=O"
RESULT: 970

====

Experiment: Toxicological evaluation (with toxicokinetics) of rats administered for 21 consecutive days
Conditions: male, SD, rat, in vivo, po, 1 mg/kg/day, male, oral 1 mg/kg/day, Day 1, read-out: AUC0-24 h
observation.type: AUC(0-t) (µM·h)
Number only, in µM·h; omit the unit.

QUERY: In one line, give reported AUC(0-t) of the entry Cn1cc(-c2cnc(CNc3nccn4c(-c5cc(F)cc(F)c5)cnc34)cn2)ccc1=O [Compound 2] .
RESULT: 12.5

====

Experiment: Toxicological evaluation (with toxicokinetics) of rats administered for 21 consecutive days
Details: female, SD, rat, in vivo, po, 3 mg/kg/day, female, oral 3 mg/kg/day, Day 1, read-out: AUC0-24 h
observation.type: AUC(0-t)
Note to self: number, then unit, no commentary.

QUERY: Please give the documented AUC(0-t) of Cn1cc(-c2cnc(CNc3nccn4c(-c5cc(F)cc(F)c5)cnc34)cn2)ccc1=O [Compound 2]
RESULT: 33.2 µM·h

====

Test: Toxicological evaluation (with toxicokinetics) of rats administered for 21 consecutive days
Details: female, SD, rat, in vivo, po, 1 mg/kg/day, female, oral 1 mg/kg/day, Day 1
observation.type: Cmax (µM)
Express it in µM; write the number only.

QUERY: Dear colleague, please send me the reported Cmax for Cn1cc(-c2cnc(CNc3nccn4c(-c5cc(F)cc(F)c5)cnc34)cn2)ccc1=O [Compound 2] when you can.
RESULT: 1.02

====

Experiment: Toxicological evaluation (with toxicokinetics) of rats administered for 21 consecutive days
Details: female, SD, rat, in vivo, po, 1 mg/kg/day, female, oral 1 mg/kg/day, Day 21
observation.type: Cmax (nM)
Write it as a number; the unit nM goes unstated.

QUERY: Consider the compound "Cn1cc(-c2cnc(CNc3nccn4c(-c5cc(F)cc(F)c5)cnc34)cn2)ccc1=O" . State its measured Cmax.
RESULT: 1580

====

Test: Toxicological evaluation (with toxicokinetics) of rats administered for 21 consecutive days
Conditions: male, SD, rat, in vivo, po, 1 mg/kg/day, male, oral 1 mg/kg/day, Day 21, read-out: AUC0-24 h
observation.type: AUC(0-t) (µM·h)
Numeric answer only, unit µM·h assumed.

QUERY: Give the value of AUC(0-t) reported for the following: Cn1cc(-c2cnc(CNc3nccn4c(-c5cc(F)cc(F)c5)cnc34)cn2)ccc1=O [Compound 2]
RESULT: 22.4

====

Test: Toxicological evaluation (with toxicokinetics) of rats administered for 21 consecutive days
Details: male, SD, rat, in vivo, po, 3 mg/kg/day, male, oral 3 mg/kg/day, Day 21
observation.type: Tmax (h)
Just the number in h, nothing appended.

QUERY: Please report Tmax for the following compound: "Cn1cc(-c2cnc(CNc3nccn4c(-c5cc(F)cc(F)c5)cnc34)cn2)ccc1=O"
RESULT: 8

====

Assay: Toxicological evaluation (with toxicokinetics) of rats administered for 21 consecutive days
Details: female, SD, rat, in vivo, po, 3 mg/kg/day, female, oral 3 mg/kg/day, Day 1
observation.type: Cmax
State the value, then name its unit.

QUERY: Name the recorded Cmax of the molecule listed here: "Cn1cc(-c2cnc(CNc3nccn4c(-c5cc(F)cc(F)c5)cnc34)cn2)ccc1=O"
RESULT: 2.27 µM

====

Assay: Toxicological evaluation (with toxicokinetics) of rats administered for 21 consecutive days
Details: female, SD, rat, in vivo, po, 10 mg/kg/day, female, oral 10 mg/kg/day, Day 1
observation.type: Tmax
Answer format: number, then unit.

QUERY: Tell me its Tmax given Cn1cc(-c2cnc(CNc3nccn4c(-c5cc(F)cc(F)c5)cnc34)cn2)ccc1=O [Compound 2] as the entry.
RESULT: 4 h

====

Assay: Toxicological evaluation (with toxicokinetics) of rats administered for 21 consecutive days
Conditions: female, SD, rat, in vivo, po, 20 mg/kg/day, female, oral 20 mg/kg/day, Day 1, read-out: AUC0-24 h
observation.type: AUC(0-t) (µM·h)
// return numeric value only (unit: µM·h, not printed)

QUERY: Give a short answer stating reported AUC(0-t) for "Cn1cc(-c2cnc(CNc3nccn4c(-c5cc(F)cc(F)c5)cnc34)cn2)ccc1=O" .
RESULT: 101

====

Experiment: Toxicological evaluation (with toxicokinetics) of rats administered for 21 consecutive days
Conditions: male, SD, rat, in vivo, po, 3 mg/kg/day, male, oral 3 mg/kg/day, Day 1, read-out: AUC0-24 h
observation.type: AUC(0-t) (µM·h)
The reply should contain only the number, in µM·h.

QUERY: Identify the reported AUC(0-t) for the following entry. "Cn1cc(-c2cnc(CNc3nccn4c(-c5cc(F)cc(F)c5)cnc34)cn2)ccc1=O"
RESULT: 23.1

====

Test: Toxicological evaluation (with toxicokinetics) of rats administered for 21 consecutive days
Settings: female, SD, rat, in vivo, po, 1 mg/kg/day, female, oral 1 mg/kg/day, Day 21, read-out: AUC0-24 h
observation.type: AUC(0-t) (µM·h)
Give just the numeric value; µM·h need not be written.

QUERY: Tell me its AUC(0-t) given Cn1cc(-c2cnc(CNc3nccn4c(-c5cc(F)cc(F)c5)cnc34)cn2)ccc1=O [Compound 2] as the entry.
RESULT: 25.6

====

Assay: Toxicological evaluation (with toxicokinetics) of rats administered for 21 consecutive days
Settings: female, SD, rat, in vivo, po, 10 mg/kg/day, female, oral 10 mg/kg/day, Day 21
observation.type: Tmax
Number plus unit, in that order.

QUERY: Return the recorded Tmax value; entry: "Cn1cc(-c2cnc(CNc3nccn4c(-c5cc(F)cc(F)c5)cnc34)cn2)ccc1=O"
RESULT: 8 h

====

Test: Pharmacokinetic evaluation in mice
Format: in vivo
Details: mouse, plasma; male CD-1 mice; IV 0.5 mg/kg; read-out: Vdss
observation.type: Vd (L/kg)
# output: bare number, implied unit L/kg

QUERY: Write down Vd measured for item Cn1cc(-c2cnc(CNc3nccn4c(-c5cc(F)cc(F)c5)cnc34)cn2)ccc1=O [Compound 2]
RESULT: 0.568

====

Experiment: Toxicological evaluation (with toxicokinetics) of rats administered for 21 consecutive days
Settings: male, SD, rat, in vivo, po, 20 mg/kg/day, male, oral 20 mg/kg/day, Day 21, read-out: AUC0-24 h
observation.type: AUC(0-t) (µM·h)
Response body: numeric value in µM·h, unit text excluded.

QUERY: Tell us which AUC(0-t) value is on record for "Cn1cc(-c2cnc(CNc3nccn4c(-c5cc(F)cc(F)c5)cnc34)cn2)ccc1=O"
RESULT: 123

====

Assay: Toxicological evaluation (with toxicokinetics) of rats administered for 21 consecutive days
Settings: male, SD, rat, in vivo, po, 3 mg/kg/day, male, oral 3 mg/kg/day, Day 21, read-out: AUC0-24 h
observation.type: AUC(0-t) (µM·h)
Write it as a number; the unit µM·h goes unstated.

QUERY: Specify measured AUC(0-t) for "Cn1cc(-c2cnc(CNc3nccn4c(-c5cc(F)cc(F)c5)cnc34)cn2)ccc1=O" .
RESULT: 50.1

====

Experiment: Toxicological evaluation (with toxicokinetics) of rats administered for 21 consecutive days
Details: male, SD, rat, in vivo, po, 20 mg/kg/day, male, oral 20 mg/kg/day, Day 21
observation.type: Tmax (h)
State just the number; it will be interpreted in h.

QUERY: In one line, give reported Tmax of the entry "Cn1cc(-c2cnc(CNc3nccn4c(-c5cc(F)cc(F)c5)cnc34)cn2)ccc1=O" .
RESULT: 8
